Please respond with reported EC50 for every item in the list.
tested on: SH-SY5Y M-currents (KCNQ2, KCNQ3 and KCNQ5); experiment: SH-SY5Y native cell line FLIPR assay (voltage-sensitive dye DiBAC); assay type: cell-based, mouse neuroblastoma, rat glioma hybrid cell line; settings: FLIPR assay, SH-SY5Y native cell line; Table 2; read-out: SH-SY5Y EC50

[Q] Return EC50 (reported value) for this molecule: "CC(C)(C)CC(=O)Nc1nc2ccc(F)cn2c1-c1ccccc1Cl"
[A] 500 to 3000 nM

[Q] Return EC50 (reported value) for this molecule: "CC(C)(C)CC(=O)Nc1nc2cc(C(F)(F)F)ccn2c1-c1ccc(F)cc1F"
[A] 500 to 3000 nM

[Q] Return EC50 (reported value) for this molecule: "O=C(Nc1nc2ccc(F)cn2c1-c1ccc(OC(F)(F)F)cc1)C1CCC(F)(F)CC1"
[A] < 500 nM

[Q] Return EC50 (reported value) for this molecule: "CC(C)(C)CC(=O)Nc1nc2ccc(Cl)cn2c1-c1ccc(F)cc1"
[A] < 500 nM

[Q] Return EC50 (reported value) for this molecule: "O=C(CCCC(F)(F)F)Nc1nc2ccc(F)cn2c1-c1ccc(OC(F)(F)F)cc1"
[A] < 500 nM

[Q] Return EC50 (reported value) for this molecule: "N#Cc1ccc2nc(NC(=O)Cc3ccccc3)c(-c3ccc(F)cc3)n2c1"
[A] 500 to 3000 nM

[Q] Return EC50 (reported value) for this molecule: "CC(C)(C)CC(=O)Nc1nc2ccc(C#N)cn2c1-c1ccc(F)cc1"
[A] 500 to 3000 nM

[Q] Return EC50 (reported value) for this molecule: "CC(C)(C)CC(=O)Nc1nc2ccc(F)cn2c1-c1ccc(C#N)c(F)c1"
[A] 500 to 3000 nM

---

Please respond with reported pEC50 for every item in the list.
tested on: SH-SY5Y M-currents (KCNQ2, KCNQ3 and KCNQ5); test: SH-SY5Y native cell line FLIPR assay (voltage-sensitive dye DiBAC); assay type: cell-based, mouse neuroblastoma, rat glioma hybrid cell line; conditions: FLIPR assay, SH-SY5Y native cell line; Table 2; read-out: SH-SY5Y EC50
pEC50: −log10 of the molar value.

[Q] Return pEC50 (reported value) for this molecule: O=C(Nc1nc2ccc(F)cn2c1-c1ccc(F)cc1)OCc1ccccc1 [Compound 146]
[A] > 6.30

[Q] Return pEC50 (reported value) for this molecule: CC(CC(=O)Nc1nc2ccccn2c1-c1cccc(OC(F)(F)F)c1)C(F)(F)F (stereo not drawn) [Compound 343]
[A] 5.52 to 6.30

[Q] Return pEC50 (reported value) for this molecule: CC(C)(C)CC(=O)Nc1nc2ccc(F)cn2c1-c1ccc(OC(F)(F)F)cc1 [Compound 153]
[A] > 6.30

[Q] Return pEC50 (reported value) for this molecule: O=C(Cc1ccc(F)cc1)Nc1nc2ccccn2c1-c1cccc(C(F)(F)F)c1 [Compound 338]
[A] 5.52 to 6.30

[Q] Return pEC50 (reported value) for this molecule: O=C(Nc1nc2ccc(F)cn2c1-c1ccccc1)C(F)(F)F [Compound 91]
[A] 5.00 to 5.52

[Q] Return pEC50 (reported value) for this molecule: O=C(CC1CCCC1)Nc1nc2cc(C(F)(F)F)ccn2c1-c1ccccc1 [Compound 98]
[A] 5.52 to 6.30

[Q] Return pEC50 (reported value) for this molecule: CC(C)(C)CC(=O)Nc1nc2ccccn2c1-c1ccc(OC(F)(F)F)cc1 [Compound 225]
[A] > 6.30

[Q] Return pEC50 (reported value) for this molecule: O=C(CC(F)(F)F)Nc1nc2ccc(F)cn2c1-c1ccc(OC(F)(F)F)cc1 [Compound 252]
[A] > 6.30

[Q] Return pEC50 (reported value) for this molecule: CC(C)(C)CC(=O)Nc1nc2ccc(F)cn2c1-c1ccc(F)cc1 [Compound 103]
[A] > 6.30

---

Please respond with reported pEC50 for every item in the list.
system: SH-SY5Y M-currents (KCNQ2, KCNQ3 and KCNQ5); test: SH-SY5Y native cell line FLIPR assay (voltage-sensitive dye DiBAC); assay type: cell-based, mouse neuroblastoma, rat glioma hybrid cell line; details: FLIPR assay, SH-SY5Y native cell line; Table 2; read-out: SH-SY5Y EC50
pEC50: −log10 of the molar value.

[Q] Return pEC50 (reported value) for this molecule: "Cc1ccc(-c2c(NC(=O)CC(C)(C)C)nc3ccc(F)cn23)cc1"
[A] 5.52 to 6.30

[Q] Return pEC50 (reported value) for this molecule: "O=C(Nc1nc2ccc(F)cn2c1-c1cccc(Cl)c1)C1CCC1"
[A] 5.52 to 6.30

[Q] Return pEC50 (reported value) for this molecule: "N#Cc1ccc(CC(=O)Nc2nc3ccc(F)cn3c2-c2ccc(F)cc2)cc1"
[A] 5.52 to 6.30

[Q] Return pEC50 (reported value) for this molecule: CC(C)C(C)C(=O)Nc1nc2ccc(F)cn2c1-c1cccc(C(F)(F)F)c1 (centres unmarked)
[A] 5.52 to 6.30

[Q] Return pEC50 (reported value) for this molecule: "CC(=O)OCC(C)(C)CC(=O)Nc1nc2ccc(F)cn2c1-c1ccc(C(F)(F)F)cc1"
[A] 5.00 to 5.52

[Q] Return pEC50 (reported value) for this molecule: "CC(C)(C)CC(=O)Nc1nc2ncccn2c1-c1cccc(OC(F)(F)F)c1"
[A] 5.00 to 5.52

[Q] Return pEC50 (reported value) for this molecule: "CC(C)(C)CC(=O)Nc1nc2ccccn2c1-c1cccc(C(F)(F)F)c1"
[A] 5.52 to 6.30

[Q] Return pEC50 (reported value) for this molecule: "O=C(COc1ccccc1)Nc1nc2ccc(F)cn2c1-c1ccc(OC(F)(F)F)cc1"
[A] 5.00 to 5.52

---

Tested on: SH-SY5Y M-currents (KCNQ2, KCNQ3 and KCNQ5)
Assay: SH-SY5Y native cell line FLIPR assay (voltage-sensitive dye DiBAC)
Assay type: cell-based, mouse neuroblastoma, rat glioma hybrid cell line
Details: FLIPR assay, SH-SY5Y native cell line; Table 2; read-out: SH-SY5Y EC50
Procedure: […] Differentiated SH-SY5Y cells were loaded with voltage-sensitive dye by incubation in Earls Balanced Salt Solution (EBSS) containing 5 mM DiBAC for 1 h. […] Changes in fluorescence were measured every 30 s for 25 min. The maximum change in fluorescence was measured and expressed as a percentage of the maximum response obtained in the presence of a positive control agent.
Please respond with reported EC50 for every item in the list.

[Q] Jot down EC50 (SH-SY5Y M-currents (KCNQ2, KCNQ3 and KCNQ5)) of "O=C(CC1CCCC1)Nc1nc2ccccn2c1-c1ccc(OC(F)(F)F)cc1" .
[A] < 500 nM

[Q] Jot down EC50 (SH-SY5Y M-currents (KCNQ2, KCNQ3 and KCNQ5)) of CC(CC(=O)Nc1nc2ncccn2c1-c1cccc(OC(F)(F)F)c1)C(F)(F)F (stereo not shown) .
[A] 3000 to 10000 nM

[Q] Jot down EC50 (SH-SY5Y M-currents (KCNQ2, KCNQ3 and KCNQ5)) of "O=C(Cc1ccc(C(F)(F)F)cc1)Nc1nc2ccc(F)cn2c1-c1ccc(OC(F)(F)F)c(F)c1" .
[A] < 500 nM

[Q] Jot down EC50 (SH-SY5Y M-currents (KCNQ2, KCNQ3 and KCNQ5)) of "CC(C)(C)CC(=O)Nc1nc2ccc(C(F)(F)F)cn2c1-c1ccc(OC(F)(F)F)cc1" .
[A] < 500 nM

[Q] Jot down EC50 (SH-SY5Y M-currents (KCNQ2, KCNQ3 and KCNQ5)) of "O=C(CC1CCCC1)Nc1nc2ccc(F)cn2c1-c1cccc(C(F)(F)F)c1" .
[A] < 500 nM

[Q] Jot down EC50 (SH-SY5Y M-currents (KCNQ2, KCNQ3 and KCNQ5)) of "O=C(CC1CC1)Nc1nc2ccc(F)cn2c1-c1ccc(F)cc1" .
[A] 3000 to 10000 nM

[Q] Jot down EC50 (SH-SY5Y M-currents (KCNQ2, KCNQ3 and KCNQ5)) of "CC(C)(C)CC(=O)Nc1nc2ccc(F)cn2c1-c1cc(F)cc(F)c1" .
[A] < 500 nM

[Q] Jot down EC50 (SH-SY5Y M-currents (KCNQ2, KCNQ3 and KCNQ5)) of "O=C(Cc1ccc(F)cc1)Nc1nc2ccc(F)cn2c1-c1ccc(F)cc1F" .
[A] 500 to 3000 nM

[Q] Jot down EC50 (SH-SY5Y M-currents (KCNQ2, KCNQ3 and KCNQ5)) of "COc1ccn2c(-c3ccc(C(F)(F)F)cc3)c(NC(=O)CC(C)(C)C)nc2c1" .
[A] 500 to 3000 nM

[Q] Jot down EC50 (SH-SY5Y M-currents (KCNQ2, KCNQ3 and KCNQ5)) of "O=C(CCC(F)(F)F)Nc1nc2ccc(F)cn2c1-c1ccc(F)cc1" .
[A] 500 to 3000 nM

[Q] Jot down EC50 (SH-SY5Y M-currents (KCNQ2, KCNQ3 and KCNQ5)) of "Cc1ccc2nc(NC(=O)CC(C)(C)C)c(-c3ccc(F)cc3)n2c1" .
[A] < 500 nM

[Q] Jot down EC50 (SH-SY5Y M-currents (KCNQ2, KCNQ3 and KCNQ5)) of "CC(C)(C)CC(=O)Nc1nc2ncc(Cl)cn2c1-c1ccc(C(F)(F)F)cc1" .
[A] 3000 to 10000 nM

[Q] Jot down EC50 (SH-SY5Y M-currents (KCNQ2, KCNQ3 and KCNQ5)) of "CO[C@H](C(=O)Nc1nc2ccc(F)cn2c1-c1ccc(OC(F)(F)F)cc1)c1ccccc1" .
[A] 3000 to 10000 nM

[Q] Jot down EC50 (SH-SY5Y M-currents (KCNQ2, KCNQ3 and KCNQ5)) of "COc1ccc2nc(NC(=O)CC(C)(C)C)c(-c3cccc(OC(F)(F)F)c3)n2n1" .
[A] < 500 nM

[Q] Jot down EC50 (SH-SY5Y M-currents (KCNQ2, KCNQ3 and KCNQ5)) of "O=C(Cc1ccccc1)Nc1nc2ccc(F)cn2c1-c1ccc(F)cc1" .
[A] 500 to 3000 nM

[Q] Jot down EC50 (SH-SY5Y M-currents (KCNQ2, KCNQ3 and KCNQ5)) of "O=C(Cc1ccc(C(F)(F)F)cc1)Nc1nc2ccc(F)cn2c1-c1ccc(F)cc1" .
[A] 500 to 3000 nM

[Q] Jot down EC50 (SH-SY5Y M-currents (KCNQ2, KCNQ3 and KCNQ5)) of "O=C(CC1CC1)Nc1nc2ccc(F)cn2c1-c1cccc(C(F)(F)F)c1" .
[A] 500 to 3000 nM

[Q] Jot down EC50 (SH-SY5Y M-currents (KCNQ2, KCNQ3 and KCNQ5)) of "CC(C)(C)OCCC(=O)Nc1nc2ccc(F)cn2c1-c1cccc(C(F)(F)F)c1" .
[A] 500 to 3000 nM

[Q] Jot down EC50 (SH-SY5Y M-currents (KCNQ2, KCNQ3 and KCNQ5)) of "O=C(Cc1ccccc1)Nc1nc2ccc(F)cn2c1-c1cccc(Cl)c1" .
[A] < 500 nM

Entry source: patent US9018208B2
